These measurements were taken from ChEMBL document CHEMBL1806488.

The following compounds are listed with their measured CC50 values.
PROTOCOL_DESCRIPTION: Cytotoxicity against cat CRFK cells by colorimetric formazan-based MTS assay
Format: cell-based, Felis catus
PARTICULARS: crfk
PARAMETER_MEASURED: CC50

| COMPOUND | MEASUREMENT |
| --- | --- |
| C[C@H](NP(=O)(OC[C@H]1O[C@@H](n2cc(I)c(=O)[nH]c2=O)C(F)(F)[C@@H]1O)Oc1cccc2ccccc12)C(=O)OCc1ccccc1 (stereo partly drawn) | 36 µM |
| C[C@H](NP(=O)(OC[C@H]1O[C@@H](n2cc(Br)c(=O)[nH]c2=O)C(F)(F)[C@@H]1O)Oc1ccccc1)C(=O)OCc1ccccc1 (stereo partly drawn) | > 100 µM |
| COC(=O)[C@H](C)NP(=O)(OC[C@H]1O[C@@H](n2cc(I)c(=O)[nH]c2=O)C(F)(F)[C@@H]1O)Oc1cccc2ccccc12 (stereo partly drawn) | 92 µM |

* * *

TESTED_SYSTEM: Thymidine kinase (Human alphaherpesvirus 1)
Sequence (Q9QNF7 whole entry): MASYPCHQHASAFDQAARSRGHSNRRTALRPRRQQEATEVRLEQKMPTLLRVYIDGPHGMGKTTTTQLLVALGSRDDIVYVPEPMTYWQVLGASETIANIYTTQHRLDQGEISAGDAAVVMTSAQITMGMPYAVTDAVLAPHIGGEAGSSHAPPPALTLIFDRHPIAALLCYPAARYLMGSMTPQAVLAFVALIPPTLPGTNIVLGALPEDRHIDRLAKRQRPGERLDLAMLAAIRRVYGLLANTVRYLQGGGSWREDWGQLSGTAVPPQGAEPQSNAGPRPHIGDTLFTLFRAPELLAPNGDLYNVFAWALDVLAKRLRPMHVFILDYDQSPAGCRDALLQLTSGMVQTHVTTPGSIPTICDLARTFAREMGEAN
The following compounds are listed with their measured IC50 values.

| ITEM_SMILES | IC50 [µM] |
| --- | --- |
| Cc1cn([C@@H]2O[C@H](CO)[C@@H](O)C2(F)F)c(=O)[nH]c1=O | 2.8 |
| O=c1[nH]c(=O)n([C@@H]2O[C@H](CO)[C@@H](O)C2(F)F)cc1Br | 7.5 |
| O=c1[nH]c(=O)n([C@@H]2O[C@H](CO)[C@@H](O)C2(F)F)cc1Cl | 22 |
| O=c1[nH]c(=O)n([C@@H]2O[C@H](CO)[C@@H](O)C2(F)F)cc1I | 3.5 |

* * *

The following compounds are listed with their measured MCC values.
PROTOCOL_DESCRIPTION: Cytotoxicity against human HEL cells assessed as alteration of normal cell morphology by microscopic analysis
Type: cell-based
PARAMETER_MEASURED: MCC

| COMPOUND | PARAMETER_MEASURED | MEASUREMENT |
| --- | --- | --- |
| C[C@H](NP(=O)(OC[C@H]1O[C@@H](n2cc(Br)c(=O)[nH]c2=O)C(F)(F)[C@@H]1O)Oc1ccccc1)C(=O)OCc1ccccc1 (some centres undefined) | MCC | > 50 µM |
| Cc1cn([C@@H]2O[C@H](CO)[C@@H](O)C2(F)F)c(=O)[nH]c1=O | MCC | > 50 µM |
| O=c1[nH]c(=O)n([C@@H]2O[C@H](CO)[C@@H](O)C2(F)F)cc1Cl | MCC | > 50 µM |
| C[C@H](NP(=O)(OC[C@H]1O[C@@H](n2cc(I)c(=O)[nH]c2=O)C(F)(F)[C@@H]1O)Oc1cccc2ccccc12)C(=O)OCc1ccccc1 (some centres undefined) | MCC | > 50 µM |
| C[C@H](NP(=O)(OC[C@H]1O[C@@H](n2cc(Cl)c(=O)[nH]c2=O)C(F)(F)[C@@H]1O)Oc1ccccc1)C(=O)OCc1ccccc1 (some centres undefined) | MCC | > 50 µM |
| O=c1[nH]c(=O)n([C@@H]2O[C@H](CO)[C@@H](O)C2(F)F)cc1I | MCC | > 50 µM |
| O=c1[nH]c(=O)n([C@@H]2O[C@H](CO)[C@@H](O)C2(F)F)cc1Br | MCC | > 50 µM |
| COC(=O)[C@H](C)NP(=O)(OC[C@H]1O[C@@H](n2cc(I)c(=O)[nH]c2=O)C(F)(F)[C@@H]1O)Oc1cccc2ccccc12 (some centres undefined) | MCC | > 50 µM |
| Nc1nc2c(ncn2COCCO)c(=O)[nH]1 | MCC | > 250 µM |
| O=c1[nH]c(=O)n([C@H]2C[C@H](O)[C@@H](CO)O2)cc1/C=C/Br | MCC | ≥ 250 µM |
| C[C@H](NP(=O)(OC[C@H]1O[C@@H](n2cc(I)c(=O)[nH]c2=O)C(F)(F)[C@@H]1O)Oc1ccccc1)C(=O)OCc1ccccc1 (some centres undefined) | MCC | > 100 µM |
| COC(=O)[C@H](C)NP(=O)(OC[C@H]1O[C@@H](n2cc(I)c(=O)[nH]c2=O)C(F)(F)[C@@H]1O)Oc1ccccc1 (some centres undefined) | MCC | > 50 µM |
| Nc1nc2c(ncn2COC(CO)CO)c(=O)[nH]1 | MCC | > 100 µM |
| Nc1ccn(C[C@@H](CO)OCP(=O)(O)O)c(=O)n1 | MCC | > 250 µM |
